- Measured target: IDH2 R140Q (Homo sapiens (Human), UniProt P48735, R140Q)
- Sequence (P48735 40-452 R140Q): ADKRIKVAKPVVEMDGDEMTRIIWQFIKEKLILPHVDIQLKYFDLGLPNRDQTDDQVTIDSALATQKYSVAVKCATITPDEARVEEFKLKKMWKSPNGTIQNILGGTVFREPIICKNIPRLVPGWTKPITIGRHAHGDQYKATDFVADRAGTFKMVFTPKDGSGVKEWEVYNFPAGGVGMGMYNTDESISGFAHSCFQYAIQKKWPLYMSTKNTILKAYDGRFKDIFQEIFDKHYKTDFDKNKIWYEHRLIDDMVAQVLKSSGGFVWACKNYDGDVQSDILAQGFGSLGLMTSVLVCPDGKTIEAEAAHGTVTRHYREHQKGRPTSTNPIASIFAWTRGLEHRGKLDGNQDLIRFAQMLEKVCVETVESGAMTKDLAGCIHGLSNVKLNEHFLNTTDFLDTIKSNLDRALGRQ
- Experimental protocol: In vitro assay for IDH2m R140Q inhibitors, cofactor depletion assay
- Format: biochemical
- Conditions: IDH2 R140Q enzyme
Value kind: IC50

- Molecule: "CC(C)(C)Nc1nc(Nc2ccnc(C#N)c2)nc(-c2cccc(C(F)(F)F)n2)n1"
  IC50: "< 50 nM"
- Molecule: "CC(Nc1nc(Nc2ccnc(-c3ccccc3)c2)nc(-c2cccc(C(F)(F)F)n2)n1)C(F)(F)F (stereo not shown)"
  IC50: "< 50 nM"
- Molecule: "N#Cc1cc(F)cc(Nc2nc(NC3CCC(F)(F)C3)nc(-c3cccc(C(F)(F)F)n3)n2)c1 (stereo not shown)"
  IC50: "< 50 nM"

--- query ---
Prompt line: Dear colleague, I am looking for the recorded IC50 of the following molecule: `CC(C)Nc1nc(Nc2ccnc(C(C)(F)F)c2)nc(-c2nccc(C(F)(F)F)n2)n1`
Response line: < 50 nM

* * *

- Test system: U87MG pLVX-IDH2 R140Q-neo cells
- Experimental protocol: U87MG pLVX-IDH2 R140Q-neo cell based assay, 2-HG by LC-MS
- Conditions: Homo sapiens, U-87 MG
Value kind: IC50

- Compound: "FC1(F)CC(CNc2nc(NCC3CC(F)(F)C3)nc(-c3cccc(C(F)(F)F)n3)n2)C1 [Compound 216]"
  Measured target: "U87MG pLVX-IDH2 R140Q-neo cells"
  Val: "< 50 nM"

Prompt line: Can you look up IC50 on U87MG pLVX-IDH2 R140Q-neo cells for N#Cc1cc(Nc2nc(NC3CCC(F)(F)C3)nc(-n3ccc(C(F)(F)F)n3)n2)ccn1 (stereo not shown) [Compound 179] ?
Response line: < 50 nM

Prompt line: Recall the recorded IC50 for CC[C@H](Nc1nc(N[C@@H](CC)C(F)(F)F)nc(-c2cncc(C(F)(F)F)n2)n1)C(F)(F)F [Compound 339] with U87MG pLVX-IDH2 R140Q-neo cells and state it.
Response line: < 50 nM

Prompt line: Request body: readout IC50, system U87MG pLVX-IDH2 R140Q-neo cells, query CC(C)(O)CNc1nc(Nc2cc(F)cc(F)c2)nc(-c2nccc(C(F)(F)F)n2)n1 [Compound 325] . Return the value.
Response line: < 50 nM

Prompt line: # value lookup — system U87MG pLVX-IDH2 R140Q-neo cells, readout IC50, item FC(F)(F)c1cccc(-c2nc(NCC3CC3(F)F)nc(NCC3CC3(F)F)n2)n1 (stereo not shown) [Compound 354]
Response line: < 50 nM

Prompt line: Form entry - test system: U87MG pLVX-IDH2 R140Q-neo cells; read-out: IC50; compound: N#CC1(c2cc(Nc3nc(N[C@H]4CCC(F)(F)C4)nc(-n4ccc(C(F)(F)F)n4)n3)ccn2)CC1 [Compound 174]
Response line: < 50 nM

Prompt line: U87MG pLVX-IDH2 R140Q-neo cells / IC50 / CC(F)(F)c1cccc(-c2nc(NC3CCC(F)(F)CC3)nc(NC3CCC(F)(F)CC3)n2)n1 [Compound 218] : value?
Response line: < 50 nM

* * *

- Measured target: IDH1 wt/IDH1 R132H heterodimer (Homo sapiens (Human), UniProt O75874, R132H)
- Sequence (O75874 whole entry R132H): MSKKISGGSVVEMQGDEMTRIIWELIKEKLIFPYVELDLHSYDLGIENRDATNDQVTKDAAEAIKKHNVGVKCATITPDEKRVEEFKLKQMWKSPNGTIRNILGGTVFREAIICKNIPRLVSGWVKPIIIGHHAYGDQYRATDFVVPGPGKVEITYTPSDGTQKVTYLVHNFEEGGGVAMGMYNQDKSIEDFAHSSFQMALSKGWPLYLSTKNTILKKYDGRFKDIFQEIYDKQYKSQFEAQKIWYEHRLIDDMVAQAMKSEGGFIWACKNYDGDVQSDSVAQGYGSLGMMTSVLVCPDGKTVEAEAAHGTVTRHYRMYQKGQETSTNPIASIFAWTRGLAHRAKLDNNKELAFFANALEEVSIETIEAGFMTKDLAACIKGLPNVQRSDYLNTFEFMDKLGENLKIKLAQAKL
- Sequence (O75874 whole entry, stated change not applied): as the sequence (O75874 whole entry R132H) above, with H132R counted along it
- Experimental protocol: In vitro assay for IDH1m R132H inhibitors, IDH1 wt/IDH1 R132H heterodimer, NADPH depletion (diaphorase/resazurin)
- Assay type: biochemical
- Conditions: IDH1 wt/R132H heterodimer, NADPH/NADP, not saturated; read-out: IDH1 wt/R132H NADPH/NADP IC50 not saturated
# key: entry, value: IC50

Observe how each entry below is paired with its result.
- Compound: "FC1(F)CCC(Nc2nc(NC3CCC(F)(F)CC3)nc(-c3cc(Cl)ccn3)n2)CC1"
  IC50: "> 1000 nM"
- Compound: "FC1(F)CCC(Nc2nc(Nc3ccnc(-c4ccccc4)c3)nc(-c3cccc(C(F)(F)F)n3)n2)CC1"
  IC50: "< 50 nM"
- Compound: "N#CC1(c2cc(Nc3nc(NC4CCC(F)(F)C4)nc(-c4cccc(C(F)(F)F)n4)n3)ccn2)CC1 (stereo not shown)"
  IC50: "< 50 nM"

Prompt line: Record lookup: for IDH1 wt/IDH1 R132H heterodimer (Homo sapiens (Human), UniProt O75874, R132H), what IC50 belongs to `FC1(F)CCC(Nc2nc(NC3CC(F)(F)C3)nc(-c3cccc(C(F)(F)F)n3)n2)CC1` ?
Response line: < 50 nM

Prompt line: I'm curious: which IC50 was measured for Fc1ccc(N2CC(Nc3nc(NC4CCC(F)(F)C4)nc(-c4cccc(C(F)(F)F)n4)n3)C2)cc1 (stereo not shown) tested on IDH1 wt/IDH1 R132H heterodimer (Homo sapiens (Human), UniProt O75874, R132H)?
Response line: > 1000 nM

Prompt line: Checklist item: IC50 tested on IDH1 wt/IDH1 R132H heterodimer (Homo sapiens (Human), UniProt O75874, R132H), entry `CC(F)(F)c1cccc(-c2nc(NC3CC(F)(F)C3)nc(NC3CC(F)(F)C3)n2)n1` , value?
Response line: < 50 nM

* * *

- Test system: U87MG pLVX-IDH2 R140Q-neo cells
- Experimental protocol: U87MG pLVX-IDH2 R140Q-neo cell based assay, 2-HG by LC-MS
- Conditions: Homo sapiens, U-87 MG
This listing pairs compounds with measured IC50.

Prompt line: Test system U87MG pLVX-IDH2 R140Q-neo cells; read-out IC50; what value for FC1(F)CCC(Nc2nc(NC3CCC(F)(F)C3)nc(-c3ccnc(C(F)(F)F)n3)n2)C1 (stereo not shown) ?
Response line: 50 to 100 nM

Prompt line: Record `FC1(F)CCC(Nc2nc(NC3CC(F)(F)C3)nc(-c3cccc(C(F)(F)F)n3)n2)CC1` : what is its IC50 with U87MG pLVX-IDH2 R140Q-neo cells?
Response line: < 50 nM

Prompt line: For the record `FC1(F)CC(Nc2nc(Nc3ccnc(C(F)(F)F)c3)nc(-c3nc(C(F)(F)F)cs3)n2)C1` , what value of IC50 is listed for U87MG pLVX-IDH2 R140Q-neo cells?
Response line: < 50 nM

Prompt line: Notebook entry, U87MG pLVX-IDH2 R140Q-neo cells assay: IC50 of `C[C@@H](Nc1nc(NCCOc2ccccc2)nc(-c2cccc(C(F)(F)F)n2)n1)C1CC1` = ?
Response line: 50 to 100 nM

* * *

- System: U87MG pLVX-IDH2 R140Q-neo cells
- Experimental protocol: U87MG pLVX-IDH2 R140Q-neo cell based assay, 2-HG by LC-MS
- Conditions: Homo sapiens, U-87 MG
Value kind: IC50

Sample answers from the record:
- Compound: "CN1CCC(Nc2nc(NC3CCC(F)(F)C3)nc(-c3cccc(C(F)(F)F)n3)n2)C1 (stereo not shown) [Compound 326]"
  Measured target: "U87MG pLVX-IDH2 R140Q-neo cells"
  IC50: "> 1000 nM"
- Compound: "CC(C)(C#N)Nc1nc(Nc2ccnc(C(C)(F)F)c2)nc(-c2cccc(C(F)(F)F)n2)n1 [Compound 247]"
  Measured target: "U87MG pLVX-IDH2 R140Q-neo cells"
  IC50: "< 50 nM"

Prompt line: Consider the compound N#Cc1cc(F)cc(Nc2nc(NC3CCC(F)(F)CC3)nc(-c3cccc(C(F)(F)F)n3)n2)c1 [Compound 164] and give its measured IC50.
Response line: < 50 nM

Prompt line: Bench note: what IC50 did FC1(F)CCC(Nc2nc(Nc3ccnc(C(F)(F)F)c3)nc(-n3ccc(C(F)(F)F)n3)n2)C1 (stereo not shown) [Compound 173] show?
Response line: < 50 nM

* * *

// IC50 lookup, one value per entry
- Measured target: IDH1 wt/IDH1 R132H heterodimer (Homo sapiens (Human), UniProt O75874, R132H)
- Experimental protocol: In vitro assay for IDH1m R132H inhibitors, IDH1 wt/IDH1 R132H heterodimer, NADPH depletion (diaphorase/resazurin)
- Format: biochemical
- Conditions: IDH1 wt/R132H heterodimer, NADPH/NADP, not saturated; read-out: IDH1 wt/R132H NADPH/NADP IC50 not saturated
- Description: The following describes the experimental procedures that can be used to obtain data on columns 2 and 4 of Table 4 and column 2 of Table 5. In the primary reaction, the reduction of α-KG acid to 2-HG is accompanied by a concomitant oxidation of NADPH to NADP. The amount of NADPH remaining at the end of the reaction time is measured in a secondary diaphorase/resazurin reaction in which the NADPH is consumed in a 1:1 molar ratio with the conversion of resazurin to the highly fluorescent resorufin. […]

- Compound: "FC1(F)CCC(Nc2nc(Nc3ccnc(C(F)(F)F)c3)nc(-c3cccc(C(F)(F)F)n3)n2)C1 (stereo not shown) [Compound 178]"
  Val: "< 50 nM"
- Compound: "C[C@@H](Nc1nc(NCC(C)(C)C(N)=O)nc(-c2cccc(C(F)(F)F)n2)n1)C1CC1 [Compound 303]"
  Val: "> 1000 nM"
- Compound: "CC(C)CNc1nc(NC(C)(C)C#N)nc(-c2cc(O)ccc2F)n1 [Compound 86]"
  Val: "50 to 100 nM"

Prompt line: What IC50 value was documented for this compound, FC1(F)CC(Nc2nc(Nc3ccnc(C(F)(F)F)c3)nc(-n3ccc(C(F)(F)F)n3)n2)C1 [Compound 197] ?
Response line: < 50 nM

Prompt line: Which value of IC50 has been reported for CC[C@H](Nc1nc(N[C@@H](CC)C(F)(F)F)nc(-c2cccc(Cl)n2)n1)C(F)(F)F [Compound 180] in the records?
Response line: < 50 nM

Prompt line: Could you tell me which IC50 is on file for N#CC1(c2cc(Nc3nc(N[C@@H]4CCC(F)(F)C4)nc(-c4cccc(C(F)(F)F)n4)n3)ccn2)CC1 [Compound 137] ?
Response line: < 50 nM

Prompt line: Entry COc1ccc2c(c1)CC(Nc1nc(NC3CCC(F)(F)C3)nc(-c3cccc(C(F)(F)F)n3)n1)C2 (stereo not shown) [Compound 166] : reported IC50 = ?
Response line: < 50 nM

# credit: patent US10028961B2
